- Test system: SW-620
- Assay protocol: NCI tumour cell line growth inhibition, 48 h
Activity calls are given as the source filed them. No stated cut-off is given here; in the data, active = GI50 up to about 1.1 µM and inactive = higher.
// classify into active, inactive

Below are worked cases with known answers.
O=c1c2ncn(C3CCCCO3)c2n(-c2ccccc2)c(=S)n1-c1ccccc1 (configuration not stated) :: inactive
Cc1ccc2c(c1C)CC1(Cc3c(C)ccc(C)c3C1=O)C2=O (configuration not stated) :: inactive
CC(C)(CO)CNc1cc(=O)[nH]c(N)n1 :: inactive
OCCCNCc1ccccn1 :: inactive
Nc1c(-c2ccc(Br)cc2)[n+]([O-])c2ccccc2[n+]1[O-] :: inactive
Cc1ccc(OC(=O)N2C/C(=C\c3ccccc3)C(=O)/C(=C/c3ccccc3)C2)cc1 :: inactive

Exercise: Tell me the recorded outcome of this test for CSc1ccc(C2OC(=O)c3ccccc32)c2ccccc12 (configuration not stated) .
Solution: inactive

Exercise: Name the outcome recorded for O=[N+]([O-])c1ccc2nc(/C(=N\Nc3ccccc3)C(O)c3ccc4c(c3)OCO4)c(O)nc2c1 (configuration not stated) in the assay.
Solution: inactive

Exercise: Look up the recorded call for S=C(Nc1ccc(/N=N/c2ccccc2)cc1)SCc1ccccc1 in this test.
Solution: inactive

Exercise: Query: recorded result category for CCCCn1c(C)c2c(c1C)C(=O)N(CCN1CCN(c3ccccc3Cl)CC1)C2=O in this test
Solution: inactive

Exercise: # lookup: test call for CCC(=O)OC[n+]1ccc2c(C)c3[nH]c4ccccc4c3c(C)c2c1
Solution: active

Exercise: // param item: Cn1cnc([N+](=O)[O-])c1Sc1nc2ccccc2s1 ; yields the recorded call
Solution: inactive

---

- Tested on: SK-MEL-2
- Assay protocol: NCI tumour cell line growth inhibition, 48 h
Activity calls are given as the source filed them. No stated cut-off is given here; in the data, active = GI50 up to about 1.1 µM and inactive = higher.
Please state which outcome applies, choosing from active, inactive

The following molecules have reported results that may help.
O=S(=O)(O)c1ccc(/N=N/c2ccc(/N=N/c3c(O)ccc4cc(S(=O)(=O)O)ccc34)cc2)cc1 :: inactive
O=C1CCC(=O)C(C(=O)CCC(=O)Nc2ccc(Cl)cc2)C1 (stereo unspecified) :: inactive
COc1ccc(-c2cc(-c3ccccc3)n(C3OCC(OC(C)=O)C(OC(C)=O)C3OC(C)=O)c(=S)c2C#N)cc1 (stereo unspecified) :: inactive

Exercise: Look up the recorded call for C[C@]12CC[C@H](O)C[C@@H]1CC[C@@H]1[C@@H]2CC[C@]2(C)[C@@H](C3=CC(=O)OC3)CC[C@]12O in this test.
Solution: inactive

Exercise: # lookup: test call for CC(C)(CO)CNc1cc(=O)[nH]c(N)n1
Solution: inactive

Exercise: Field: outcome | Entry: COC(=O)CCCC(=O)NC1=C(Nc2ccc(OC)cc2)C(=O)c2ccccc2C1=O
Solution: inactive

Exercise: Record lookup: outcome of this test for C=CCc1ccccc1CC1(OCC)OC(=O)c2ccccc21 (stereo unspecified) ?
Solution: inactive

Exercise: Hey, what did the test say about CC(C)(C)c1cc(C(=O)O)c2c(c1)C(=O)OC2(c1ccccc1)c1ccccc1C(=O)O (stereo unspecified) ?
Solution: inactive

Exercise: What classification did COC(=O)C1=C(C(=O)NNc2ccccc2)N(c2cccnc2Cl)C(c2ccccc2)=CC1c1ccccc1 (stereo unspecified) end up with in this test?
Solution: inactive

Exercise: I'd appreciate the recorded outcome for CCOC(=O)c1c(N2CCOCC2)ncn(-c2cccc(Cl)c2)c1=O from this test.
Solution: inactive

Exercise: Hello, I am checking results. What call was entered for O=C(CBr)c1ccc2cc(Br)c3ccccc3c2c1 ?
Solution: inactive

Exercise: Any idea what this test logged for C[N+]1(CCC[N+]2(C)CC3C4C=CC(CC4)C3C2)CCOCC1 (stereo unspecified) ?
Solution: inactive

Exercise: Recorded test call requested for CNC(=O)CN1CC(=O)N(C)C(=O)C1
Solution: inactive
